Would you kindly list intrinsic clearance (CLint) for each of these compounds?
- MEASUREMENT_NOTES: Metabolic stability in CD1 mouse liver microsomes assessed as intrinsic clearance at 2 uM measured up to 120 mins by LC-MS/MS analysis
- Type: ADME, Microsome
- CONDITIONS_USED: 2 h
Numeric only. Scale: µL/min/mg

Input: I am curious: what intrinsic clearance (CLint) value has been reported for COc1ccc2nccc(CCN3CCC(NCc4ccc5c(c4)OCCO5)CC3)c2c1 ?
Output: 1940

Input: Name the recorded intrinsic clearance (CLint) for COc1ccc2ncc(F)c(C(O)C[C@H]3OC[C@H](NCc4ccc5c(c4)OCCO5)CO3)c2c1 (mixture of isomers) .
Output: 835

Input: What measured intrinsic clearance (CLint) goes with COc1ccc2ncc(F)c(CC[C@H]3OC[C@H](NCc4ccc5c(c4)OCCO5)CO3)c2n1 ?
Output: 2240

Input: # query: intrinsic clearance (CLint) of entry COc1ccc2nccc(CCN3CCC(NCc4cc5c(cn4)OCCO5)CC3)c2c1
Output: 2150

###

- TARGET_UNDER_TEST: Cytochrome P450 2C9 (Homo sapiens, UniProt P11712)
- Sequence (P11712 whole entry): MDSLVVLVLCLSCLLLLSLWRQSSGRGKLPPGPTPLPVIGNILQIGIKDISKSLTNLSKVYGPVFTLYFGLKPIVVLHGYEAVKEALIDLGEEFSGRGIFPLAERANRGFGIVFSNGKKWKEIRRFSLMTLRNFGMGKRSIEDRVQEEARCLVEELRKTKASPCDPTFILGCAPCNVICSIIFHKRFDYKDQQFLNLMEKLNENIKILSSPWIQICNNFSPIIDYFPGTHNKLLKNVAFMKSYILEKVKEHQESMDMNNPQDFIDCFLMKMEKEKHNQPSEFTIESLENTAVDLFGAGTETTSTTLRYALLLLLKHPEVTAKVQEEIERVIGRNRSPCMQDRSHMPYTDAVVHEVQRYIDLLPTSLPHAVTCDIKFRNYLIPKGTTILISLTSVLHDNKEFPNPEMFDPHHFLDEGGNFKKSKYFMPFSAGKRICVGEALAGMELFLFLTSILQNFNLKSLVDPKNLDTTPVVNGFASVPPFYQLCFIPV
pIC50: −log10 of the molar value.
MEASURED_METRIC: pIC50

Input: Give its pIC50 value. Item: COc1ccc2ncc(F)c(C[C@H](O)[C@H]3OC[C@H](NCc4cc5c(nn4)OCCS5)CO3)c2n1
Output: < 5.00

###

- System: Staphylococcus aureus
- MEASUREMENT_NOTES: Selectivity index, ratio of IC50 for inhibition of Staphylococcus aureus topoisomerase IV decatenation activity to IC50 for inhibition of Staphylococcus aureus DNA gyrase supercoiling activity
Returns one of Criterion met or Criterion not met; Criterion met when Ratio IC50 is >= 20.

Input: Is it the case that COc1ccc2ncc(F)c(C[C@H](O)[C@H]3OC[C@H](NCc4ccc(C)cc4)CO3)c2c1 has Ratio IC50 reaching or exceeding 20?
Output: Criterion met

Input: Is the recorded value of Ratio IC50 equal to or greater than 20 for this compound? COc1ccc2ncc(F)c(C[C@H](O)[C@H]3OC[C@H](NCc4ccc(Cl)c(Cl)c4)CO3)c2c1
Output: Criterion met

Input: Confirm if Ratio IC50 reported for the compound COc1ccc2ccc(F)c(C[C@H](O)[C@H]3OC[C@H](NCc4ccc(Cl)c(Cl)c4)CO3)c2n1 is 20 or above.
Output: Criterion met

Input: Determine whether measured Ratio IC50 meets or exceeds 20 for COc1ccc2ncc(F)c(C[C@H](O)[C@H]3OC[C@H](NCc4ccc5c(c4)OCCO5)CO3)c2c1
Output: Criterion met

Input: Would you say COc1ccc2ncc(F)c(C(O)C[C@H]3OC[C@H](NCc4ccc(Cl)c(Cl)c4)CO3)c2n1 (mixture of isomers) shows Ratio IC50 at minimum 20?
Output: Criterion not met

###

- Tested on: Staphylococcus aureus
- MEASUREMENT_NOTES: Antibacterial activity against Staphylococcus aureus 3527 by CLSI method
- Type: functional
Consider the following compounds; for each one, report its MIC.
Give just the numeric value; µg/mL need not be written.

Input: What value of MIC has been recorded for this entry: COc1ccc2ncc(=O)n(CC(O)[C@H]3OC[C@H](NCc4ccc5c(c4)OCCO5)CO3)c2c1 (mixture of isomers)
Output: 0.5

Input: Name the reported MIC value associated with the compound COc1ccc2ncc(F)c(C[C@H](O)[C@H]3OC[C@H](NCc4cc5c(nn4)OCCS5)CO3)c2c1
Output: 0.5
